TGI reference
tested on: CCRF-CEM leukemia; test: NCI tumour cell line growth inhibition, 48 h
recorded_endpoint: TGI

                                   compound     result
0            S=C(NCCc1ccccn1)N/N=C/c1ccccn1  < 0.01 µM
1  COC(=O)C1CCC(=S)N1C(=O)OCc1ccccc1 (stereo unspecified)   > 100 µM
2  O=S(=O)(CCN1CCOCC1)Nc1cc(-c2ccc3ncnc(Nc4ccc(F)c(Cl)c4)c3c2)cnc1Cl   > 100 µM
3  CCc1c2c(cc3c1CC1(C3)Cc3cc4c(c(C(=O)OC)c3C1)CCCC4)CCCC2 (stereo unspecified)   > 100 µM
4  CN(C)CCN1C(=O)c2cccc3cc([N+](=O)[O-])cc(c23)C1=O   0.798 µM
5  C=CC(O)(CBr)CCC(Br)C(=C)C (stereo unspecified)    > 10 µM
